TESTED ON: human full-length VWF (human, UniProt P04275 764-2813)
PROTOCOL DETAILS: SPR, Biacore T200, antibody captured on Protein A, full-length VWF as analyte, single-cycle kinetics
pKd by entry:
Notebook: values listed as pKd are -log10 of the concentration (mol/L).

Take a look at these entries with their results.
BINDER	pKd
4-H3_H8_L0 (antibody, human IgG1, kappa, V domains shown, humanised, human IgG1 kappa) VH: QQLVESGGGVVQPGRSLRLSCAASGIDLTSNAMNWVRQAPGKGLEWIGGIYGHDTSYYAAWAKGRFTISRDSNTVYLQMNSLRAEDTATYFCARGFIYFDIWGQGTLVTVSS VL: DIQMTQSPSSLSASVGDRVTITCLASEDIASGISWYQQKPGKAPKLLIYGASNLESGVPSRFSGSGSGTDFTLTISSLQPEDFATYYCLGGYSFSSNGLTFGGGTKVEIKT	10.90
4-H3_VH-par_L0 (antibody, human IgG1, kappa, V domains shown, also called 4-H3_L0 (hIgG1K)) VH: SQSLEESGGRLVPPGTPLTLTCTVSGIDLTSNAMNWVRQAPGKGLEWIGGIYGHDTSYYAAWAKGRFTISRTSTTVDLKMTRPTTDDTATYFCARGFIYFDIWGTGTLVTISS VL: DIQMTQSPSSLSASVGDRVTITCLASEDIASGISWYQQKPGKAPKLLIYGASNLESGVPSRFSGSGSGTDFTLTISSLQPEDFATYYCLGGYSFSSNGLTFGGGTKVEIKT	11.76

# ---- query binder ----
Challenge: Quick one: pKd of 4-H3_H8_L1 (antibody, human IgG1, kappa, V domains shown, humanised, human IgG1 kappa) VH: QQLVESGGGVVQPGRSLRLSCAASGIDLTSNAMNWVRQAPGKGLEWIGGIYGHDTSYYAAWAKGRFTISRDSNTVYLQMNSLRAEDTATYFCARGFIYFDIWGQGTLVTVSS VL: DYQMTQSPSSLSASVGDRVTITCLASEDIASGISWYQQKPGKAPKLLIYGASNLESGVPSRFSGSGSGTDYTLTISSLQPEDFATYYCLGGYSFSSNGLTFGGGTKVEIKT ?
Response given: 10.76

// data source = patent US20240228660A1
